The reported numbers originate from patent US20210095028A1.

Documented kon across a set of binders
Target: T1, Human TIGIT protein with HIS tag (human, UniProt Q495A1 22-141)
T1 construct: A soluble analyte is probably only the extracellular part; also called human TIGIT recombinant protein; not shown: HIS tag
T1 sequence: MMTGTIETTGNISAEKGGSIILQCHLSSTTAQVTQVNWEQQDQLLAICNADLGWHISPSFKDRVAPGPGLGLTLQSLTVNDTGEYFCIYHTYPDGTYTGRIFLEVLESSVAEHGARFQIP
Test: SPR Biacore T200; antibody Fc-captured, TIGIT-His analyte
Output spec: scalar in M⁻¹ s⁻¹, unitless text.

11D8E12A4 (antibody, V domains shown, Mouse monoclonal antibody; also called mouse anti-human TIGIT monoclonal antibody 11D8E12A4) VH: EVLLQQSGPELVKPGASVKIPCKASGYTFTDYNMDWVKQSHGKSLEWIGDINPNNGGTIYNQKFKGKATLTVDKSSSTAYMELRSLTSEDTAVYYCARRWLLLVYTMDYWGQGTSVTVSS VL: QIVLTQSPAIMSASPGEKVTISCSASSSVSYMYWYQQKPGSSPKPWIYRTSNLASGVPARFSGSGSGTSYSLTISSMEAEDAATYYCHQYHNYPPTFGGGTKLEIK ... 640000
104G12E12G2 (antibody, V domains shown, Mouse monoclonal antibody; also called mouse anti-human TIGIT monoclonal antibody 104G12E12G2) VH: EVQLQQSGPELVKPGASVKISCKASGYSFTGSYIHWVKQNHVKTLEWIGRINPHNGPTSYNQNFKGKASLTVDLSSSTAYMEVHSLTSEDSAVYYCVRYDGYYGGALDYWGQGTSVTVSS VL: DIQMTQSPSSLSASLGERVSLTCRASQEISGYLSWLQQKPDGTIKRLIYAASTLDSGVPKRFSGSRSGSDYSLTISSLESEDFADYYCLQYASYPYTFGGGTKLEIK ... 370000
100C4E7D11 (antibody, V domains shown, Mouse monoclonal antibody; also called mouse anti-human TIGIT monoclonal antibody 100C4E7D11) VH: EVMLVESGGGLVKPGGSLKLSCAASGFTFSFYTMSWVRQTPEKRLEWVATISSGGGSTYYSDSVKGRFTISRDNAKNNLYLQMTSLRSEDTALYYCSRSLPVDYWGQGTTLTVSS VL: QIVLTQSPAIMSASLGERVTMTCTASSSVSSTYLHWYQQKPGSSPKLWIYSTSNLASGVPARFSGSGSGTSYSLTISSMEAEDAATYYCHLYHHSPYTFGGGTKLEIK ... 650000
64G1E9B4 (antibody, V domains shown, Mouse monoclonal antibody; also called mouse anti-human TIGIT monoclonal antibody 64G1E9B4) VH: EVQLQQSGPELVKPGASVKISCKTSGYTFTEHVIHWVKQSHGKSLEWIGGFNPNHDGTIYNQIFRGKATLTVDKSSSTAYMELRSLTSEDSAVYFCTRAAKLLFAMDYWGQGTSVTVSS VL: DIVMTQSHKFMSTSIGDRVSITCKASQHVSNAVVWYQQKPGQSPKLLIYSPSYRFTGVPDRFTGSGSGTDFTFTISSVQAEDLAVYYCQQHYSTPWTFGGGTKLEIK ... 650000

Now for another entry.
Req: Give kon for 83G6H11C12 (antibody, V domains shown, Mouse monoclonal antibody; also called mouse anti-human TIGIT monoclonal antibody 83G6H11C12) VH: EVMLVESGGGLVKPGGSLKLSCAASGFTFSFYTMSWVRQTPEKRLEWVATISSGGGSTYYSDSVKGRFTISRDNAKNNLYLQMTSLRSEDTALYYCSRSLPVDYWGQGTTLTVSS VL: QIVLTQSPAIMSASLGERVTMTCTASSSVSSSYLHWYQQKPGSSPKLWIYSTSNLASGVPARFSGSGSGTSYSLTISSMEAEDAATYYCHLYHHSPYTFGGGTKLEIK
Resp: 610000
